system: Escherichia coli IAI1; assay: fold change of Putrescine concentration vs plate DMSO controls (fold change (ratio)); higher = more amine produced, active = hit call of the paper (significant change in both replicates, either direction); conditions: incubation time: 27 h, anaerobic, 37 °C
Counter-ions that a name gives are not always drawn.
Returns Met if the recorded fold change of Putrescine concentration is greater than or equal to 1, and Not met otherwise.

Molecule | Target Or Test System | Group Label
Nc1nc(O)c2ncn(CCC(CO)CO)c2n1 [Penciclovir] (20 µM) | Escherichia coli IAI1 | Met
CN1CCC[C@@H]1CCO[C@](C)(c1ccccc1)c1ccc(Cl)cc1 [Clemastine fumarate] (20 µM) | Escherichia coli IAI1 | Met

# input Exam item: decide whether the reported fold change of Putrescine concentration for O=C(O)c1cc(/N=N/c2ccc(S(=O)(=O)Nc3ccccn3)cc2)ccc1O [Sulfasalazine] (20 µM) is at least 1.
# output Not met

# input Exam item: decide whether the reported fold change of Putrescine concentration for CC(=O)Oc1cc(C(F)(F)F)ccc1C(=O)O [Triflusal] (20 µM) is at least 1.
# output Met

* * *

test system: Clostridium sporogenes DSM 1664; experiment: fold change of Tryptamine concentration vs plate DMSO controls (fold change (ratio)); higher = more amine produced, active = hit call of the paper (significant change in both replicates, either direction); details: incubation time: 27 h, anaerobic, 37 °C;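 for the amine columns active = adjusted P below 0.05 in both replicates with a change the same way and a mean fold change under 0.8 or over 1.25; inactive = the rest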
Structures can show the parent of a compound that is named as a salt.
Give one outcome, nothing more. List: class 1 (active), class 0 (inactive)

Compound | Target Or Test System | Group Label
NCCNCCNCCNCCN [Tetraethylenepentamine pentahydrochloride] (20 µM) | Clostridium sporogenes DSM 1664 | class 0
CCCCCN(C)CCC(O)(P(=O)(O)O)P(=O)(O)O [Ibandronate sodium] (20 µM) | Clostridium sporogenes DSM 1664 | class 0
COc1ccc(Cl)cc1C(=O)NCCc1ccc(S(=O)(=O)NC(=O)NC2CCCCC2)cc1 [Glibenclamide] (20 µM) | Clostridium sporogenes DSM 1664 | class 0
C[C@H]1[C@@H](O)O[C@@H]2O[C@@]3(C)CC[C@H]4[C@H](C)CC[C@@H]1[C@@]24OO3 [Artenimol] (20 µM) | Clostridium sporogenes DSM 1664 | class 0
CC(C)Nc1ncccn1 [Isaxonine] (20 µM) | Clostridium sporogenes DSM 1664 | class 0
C[C@]12C[C@H](O)[C@H]3[C@@H](CCC4=CC(=O)CC[C@@]43C)[C@@H]1CC[C@@H]2C(=O)CO [Corticosterone] (20 µM) | Clostridium sporogenes DSM 1664 | class 0

Next item in the queue.
# input Test call, this compound: CC(=O)c1ccc2c(c1)N(CCCN(C)C)c1ccccc1S2 [Acetopromazine maleate salt] (20 µM)
# output class 0

* * *

test system: Ruminococcus gnavus DSM 108212; assay: growth (OD595) fold change vs plate DMSO controls (fold change (ratio)); higher = more growth; conditions: incubation time: 27 h, anaerobic, 37 °C
Where a name gives a salt, the structure may show the parent alone.
growth: recorded values
Just the number, please, no unit attached.

Examples with answers:
Molecule | Target Or Test System | growth
CC(=O)Nc1cccc(O)c1 [Metacetamol] (20 µM) | Ruminococcus gnavus DSM 108212 | 0.966
CCCCCCCN(CC)CCCC(O)c1ccc(NS(C)(=O)=O)cc1 (centres undefined) [Ibutilide fumarate] (20 µM) | Ruminococcus gnavus DSM 108212 | 1.08
CCN(CC)CCNC(=O)c1cc(Cl)c(N)cc1OC [Metoclopramide monohydrochloride] (20 µM) | Ruminococcus gnavus DSM 108212 | 1.13

Consider the additional molecule presented here.
# input Requested read-out growth, target or system Ruminococcus gnavus DSM 108212, entry O=C(CCCCC(=O)Nc1c(I)cc(I)c(C(=O)O)c1I)Nc1c(I)cc(I)c(C(=O)O)c1I [Iodipamide] (20 µM)
# output 0.98
